Recorded values, source PubChem BioAssay AID1159580.

Kindly supply the reported normalized growth values for the records listed here.
Assay: chemical genetic growth profiling, strain panel (AID 1159580);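 further: tested at 20 µM; growth read once vehicle control cultures reached saturation at 30 °C; 1 = growth at the plate median or of vehicle wells; lower values mean less growth of the strain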
Details: S. cerevisiae deletion strains, growth OD, locus YOR265W, strain rbl2, stronger effect = lower value
About 2,000 (36%) of roughly 5,500 compounds were called active. Roughly 18% stayed inconclusive and do not appear here. This is one part of the list.
Numbers only.

compound	observed-measurement
CC(=O)CC(c1ccccc1)c1c(O)c2ccccc2oc1=O (stereo unspecified)	0.984

Provide the reported normalized growth of each entry below, same order.
1. CCN(CC)CCNc1ccc(CO)c2sc3ccccc3c(=O)c12
2. CC1=NCCc2c1[nH]c1cc(O)ccc21
3. O=c1c2ccccc2oc2ccccc12
4. COc1ccc2cc3[n+](cc2c1OC)CCc1cc2c(cc1-3)OCO2
5. O=C(O)c1cc(=O)c2ccccc2o1
6. Cc1cc2cc3c(C)cc(=O)oc3c(C)c2o1
7. COc1cc2cc[n+]3cc4c(OC)c(OC)ccc4cc3c2cc1OC

[out]
1. 1
2. 0.976
3. 0.936
4. 0.984
5. 0.976
6. 0.995
7. 0.989

Provide the reported normalized growth of each entry below, same order.
1. COc1cc2c(cc1OC)-c1cc3ccc(OC)c(OC)c3c[n+]1CC2
2. C=CCc1ccccc1OCC(O)CNC(C)C (stereo unspecified)
3. O=c1oc2ccccc2c(O)c1Cc1c(O)c2ccccc2oc1=O

[out]
[0.973, 1, 1]

====

Experiment: chemical genetic growth profiling, strain panel (AID 1159580);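 further: tested at 20 µM; growth read once vehicle control cultures reached saturation at 30 °C; 1 = growth at the plate median or of vehicle wells; lower values mean less growth of the strain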
Conditions: S. cerevisiae deletion strains, growth OD, locus YMR058W, strain fet3, stronger effect = lower value
The whole screen tested about 5,500 compounds, of which about 2,000 (36%) were called active. Inconclusive results (about 18%) are left out. This is one part of the list.
reported-endpoint: normalized growth
Numbers only.

Record excerpt, results attached:
compound	normalized growth
CC(C)c1ccc2c(c1O)CC[C@H]1C3=C(CC[C@]21C)C(=O)OC3	0.961
CN(C)C(=O)Oc1cc(OC(=O)N(C)C)cc(C(O)CNC(C)(C)C)c1 (stereo unspecified)	1.03
COC(=O)C1=C(C)NC(C)=C(C(=O)OCCN(C)Cc2ccccc2)C1c1cccc([N+](=O)[O-])c1 (stereo unspecified)	0.993
CN(C)CCC=C1c2ccccc2C=Cc2ccccc21	0.968
O=C(O)c1cc(=O)c2ccccc2o1	0.984

Provide the reported normalized growth of each entry below, same order.
1. NS(=O)(=O)c1cc2c(cc1C(F)(F)F)NCNS2(=O)=O
2. Cc1cc2cc3c(C)cc(=O)oc3c(C)c2o1

[out]
[1.01, 0.945]

====

Test: chemical genetic growth profiling, strain panel (AID 1159580);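 further: tested at 20 µM; growth read once vehicle control cultures reached saturation at 30 °C; 1 = growth at the plate median or of vehicle wells; lower values mean less growth of the strain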
Conditions: S. cerevisiae deletion strains, growth OD, locus YLR058C, strain SHM2, stronger effect = lower value
The whole screen tested about 5,500 compounds, of which about 2,000 (36%) were called active. About 18% were inconclusive and are not listed. Some of the results follow.
reported-endpoint: normalized growth

Record excerpt, results attached:
compound	normalized growth
CN1CCc2c(c3ccccc3n2Cc2ccccc2)C1	0.998 (inactive)
C=C1C2CC[C@@]3(C)[C@H](c4ccoc4)OC(=O)C[C@]13O[C@H]1CC(=O)C(C)(C)[C@H](C(O)C(=O)OC)[C@@]21C (stereo partly drawn)	1.02 (inactive)
NC(=O)CC[C@@H](N)C(=O)O	1.02 (inactive)
COc1cccc(-c2cc(=O)c3ccc(OC)cc3o2)c1	0.999 (inactive)
OC1C(O)C(O)C(O)C(O)C1O (stereo not drawn)	0.982 (inactive)
Nc1nc(N)c2nc(-c3ccccc3)c(N)nc2n1	1 (inactive)
CCC/C=C/C=C/[C@@H]1C[C@@H](O)[C@@H](O)C(=O)[C@H]1C=O	0.99 (inactive)
O=C1c2c(O)ccc(O)c2C(=O)c2c(NCCNCCO)ccc(NCCNCCO)c21	1.02 (inactive)
CC1=C2C(=CO[C@H](C)[C@H]2C)C(=O)C(C(=O)O)=C1O	0.985 (inactive)
CN(C)CCC=C1c2ccccc2C=Cc2ccccc21	0.99 (inactive)

Provide the reported normalized growth of each entry below, same order.
1. CN(C)CCC=C1c2ccccc2CCc2ccccc21
2. COc1cc2c3cc1Oc1cc(ccc1O)C[C@@H]1c4c(cc(OC)c(O)c4Oc4ccc(cc4)C[C@@H]3N(C)CC2)CC[N+]1(C)C

[out]
1: 1.01 (inactive); 2: 1.01 (inactive)
